# ASSAYED SYSTEM: human TLR9 (Homo sapiens)
# Construct: host or cells: HEK-Blue cells (HEK293-derived reporter line)
# ASSAY OVERVIEW: TLR9 inhibition reporter assay (HEK-Blue cells, secreted embryonic alkaline phosphatase reporter)
# Type: cell-based
# CONDITION SET: HEK-Blue cells overexpressing human TLR9, stimulated with ODN2006 5 nM; read-out: TLR 9 IC50
PROPERTY: log10(IC50) (log10 of the value in nM)
All values: log10 IC50 [nM].

Some compounds with recorded log10(IC50):
Cn1c(-c2ccc(S(C)(=O)=O)cc2)nc2cc(C3CCN(C4CCN(C5CC5)CC4)CC3)cc(F)c21 [Example 202] | 2.70
CC(C)CN1C2CCC1CC(N1CCC(c3ccc4nc(-c5ccc(S(C)(=O)=O)cc5)n(C)c4c3F)CC1)C2 (single isomer, unassigned) [Example 267] | 2.54
COc1ccc(-c2nc3c(C)cc(C4CCN(C5CCN(CC(C)C)CC5)CC4)cc3[nH]2)cc1OC [Example 43, tris(2,2,2-trifluoroacetate)] | 0.99
Cc1cc(C2CCN(C3CCCN(CC(C)C)CC3)CC2)cc2c1nc(-c1ccc(S(C)(=O)=O)cc1)n2C (centres unmarked) [Example 136] | 2.13
COc1cc(-c2nc3c(C)cc(C4CCN(C5CC6CCC(C5)N6C5CCC5)CC4)cc3n2C)cn2ncnc12 (single isomer, unassigned) [Example 355] | 1.04
COc1ccc(-c2nc3cc(F)c(C4CCN(C5CCN(CC(C)C)CC5)CC4)cc3[nH]2)cc1OC [Example 130] | 1.34

Query: Request: log10(IC50), test system human TLR9 (Homo sapiens), entry COc1ccc(-c2nc3cc(F)c(C4CCN(C5CCN(C(C)C)CC5)CC4)cc3[nH]2)cc1OC [Example 129]
Reply: 2.27

Query: Request: log10(IC50), test system human TLR9 (Homo sapiens), entry Cc1cc(C2CCN(C3CCN(CC(C)C)CC3)CC2)cc2[nH]c(-c3ccc(S(C)(=O)=O)cc3)nc12 [Example 58, tris(2,2,2-trifluoroacetate)]
Reply: 1.67

Query: Request: log10(IC50), test system human TLR9 (Homo sapiens), entry COc1ccc(-c2nc3ccc(C4CCN(C5CCN(CC(C)C)CC5)CC4)cc3n2C(C)C)cc1OC [Example 30]
Reply: 2.40

Query: Request: log10(IC50), test system human TLR9 (Homo sapiens), entry Cn1c(-c2ccc(S(C)(=O)=O)cc2)nc2cc(F)c(C3CCN(C4CC5CCC(C4)N5C4CCOCC4)CC3)cc21 (centres unmarked) [Example 236]
Reply: 2.00

Query: Request: log10(IC50), test system human TLR9 (Homo sapiens), entry COc1ccc(-c2nc3c(C)cc(C4CCN(C5CC6(C5)CN(CC(C)C)C6)CC4)cc3n2C)cc1OC [Example 47, tris(2,2,2-trifluoroacetate)]
Reply: 1.11

###

# ASSAYED SYSTEM: human TLR9 (Homo sapiens)
# Construct: host or cells: HEK-Blue cells (HEK293-derived reporter line)
# Sequence (Q9NR96 26-1032): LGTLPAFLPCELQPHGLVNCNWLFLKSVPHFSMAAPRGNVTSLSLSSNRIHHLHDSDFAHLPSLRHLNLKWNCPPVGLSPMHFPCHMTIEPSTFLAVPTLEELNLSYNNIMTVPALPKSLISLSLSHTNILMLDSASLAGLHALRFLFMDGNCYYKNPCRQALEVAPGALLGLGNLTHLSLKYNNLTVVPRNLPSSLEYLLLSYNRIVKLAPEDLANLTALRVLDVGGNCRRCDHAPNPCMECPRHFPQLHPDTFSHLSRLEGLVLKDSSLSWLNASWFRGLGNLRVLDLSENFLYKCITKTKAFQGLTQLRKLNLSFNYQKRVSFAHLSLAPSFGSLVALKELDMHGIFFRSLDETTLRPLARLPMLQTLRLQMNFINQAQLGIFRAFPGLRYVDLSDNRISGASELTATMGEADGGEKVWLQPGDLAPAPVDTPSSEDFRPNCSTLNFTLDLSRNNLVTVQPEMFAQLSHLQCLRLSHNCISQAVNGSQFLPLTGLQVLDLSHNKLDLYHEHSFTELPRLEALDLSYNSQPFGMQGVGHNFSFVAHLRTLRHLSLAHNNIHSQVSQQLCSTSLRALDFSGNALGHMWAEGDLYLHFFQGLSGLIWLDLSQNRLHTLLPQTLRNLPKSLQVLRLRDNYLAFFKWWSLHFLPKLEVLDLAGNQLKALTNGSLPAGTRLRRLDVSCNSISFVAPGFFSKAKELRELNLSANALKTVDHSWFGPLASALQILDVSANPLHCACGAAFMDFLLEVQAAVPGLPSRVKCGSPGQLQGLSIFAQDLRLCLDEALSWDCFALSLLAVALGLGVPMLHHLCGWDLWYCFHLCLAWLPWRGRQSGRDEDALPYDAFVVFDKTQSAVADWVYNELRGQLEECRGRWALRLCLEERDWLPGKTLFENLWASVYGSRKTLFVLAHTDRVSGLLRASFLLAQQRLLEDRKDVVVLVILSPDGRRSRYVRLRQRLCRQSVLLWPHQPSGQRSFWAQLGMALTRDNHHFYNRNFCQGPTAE
# ASSAY OVERVIEW: TLR9 inhibition reporter assay (HEK-Blue cells, secreted embryonic alkaline phosphatase reporter)
# Type: cell-based
# CONDITION SET: HEK-Blue cells overexpressing human TLR9, stimulated with ODN2006 5 nM; read-out: TLR 9 IC50
// IC50 lookup, one value per entry
Provide the reading as a plain figure in nM.

Some molecules with recorded IC50:
Cc1cc(-c2ccc(N3CCN(CC4CCC4)CC3)cc2)cc2c1nc(-c1ccc(S(C)(=O)=O)cc1)n2C | 1780
CS(=O)(=O)c1ccc(-c2nc3c(F)cc(C4CCN(C5CCN(C6CCOCC6)CC5)CC4)cc3n2C2CC2)cc1 | 36
Cc1cc(C2CCN(C3CCN(CC(C)C)CC3)CC2)cc2[nH]c(-c3ccc(S(=O)(=O)c4ccccc4)cc3)nc12 [Example 75, tris(2,2,2-trifluoroacetate)] | 63

We now examine a further molecule.
Query: Recorded IC50 for `COc1ccc(-c2nc3ccc(C4CCN(C5CCN(C(C)C)CC5)CC4)cc3n2C(C)C)cc1OC` , please?
Reply: 169

###

// IC50 lookup, one value per entry
# ASSAYED SYSTEM: human TLR9 (Homo sapiens, UniProt Q9NR96)
# Construct: host or cells: HEK-Blue cells (HEK293-derived reporter line)
# ASSAY OVERVIEW: TLR9 inhibition reporter assay (HEK-Blue cells, secreted embryonic alkaline phosphatase reporter)
# Format: cell-based
Provide the reading as a plain figure in nM.

Some molecules with recorded IC50:
CC(C)CN1C2CCC1CC(N1CCC(c3cc(F)c4c(c3)nc(-c3ccc(S(C)(=O)=O)cc3)n4C)CC1)C2 (stereo not shown) [Example 210] | 120
CC(C)CN1C2CCC1CC(N1CCC(c3ccc4c(nc(-c5ccc(S(C)(=O)=O)cc5)n4C)c3F)CC1)C2 (single isomer, unassigned) [Example 190] | 2600
Cn1c(-c2ccc(S(C)(=O)=O)cc2)nc2ccc(C3CCN(C4CCN(C5COC5)CC4)CC3)c(F)c21 | 1800
COc1ccc(-c2nc3cc(F)c(C4CCN(C5CCN(CC(C)C)CC5)CC4)cc3[nH]2)cc1OC | 22
COCCN1C2CCC1CC(N1CCC(c3cc4c(cc3F)nc(-c3ccc(S(C)(=O)=O)cc3)n4C)CC1)C2 (single isomer, unassigned) [Example 238] | 58
Cn1c(-c2ccc(S(C)(=O)=O)cc2)nc2cc(F)c(C3CCN(C4CCN(C5CCC5)CC4)CC3)cc21 | 290

We now examine a further molecule.
Query: Recorded IC50 for `Cn1c(-c2ccc(S(C)(=O)=O)cc2)nc2c(F)cc(C3CCN(C4CCN(C5COC5)CC4)CC3)cc21` , please?
Reply: 1200

###

# ASSAYED SYSTEM: human TLR9 (Homo sapiens, UniProt Q9NR96)
# Construct: host or cells: HEK-Blue cells (HEK293-derived reporter line)
# ASSAY OVERVIEW: TLR9 inhibition reporter assay (HEK-Blue cells, secreted embryonic alkaline phosphatase reporter)
# Format: cell-based
# CONDITION SET: HEK-Blue cells overexpressing human TLR9, stimulated with ODN2006 5 nM; read-out: TLR 9 IC50
PROPERTY: IC50 (nM)
Provide the reading as a plain figure in nM.

Some compounds with recorded IC50:
CC(C)CN1C2CCC1CC(N1CCC(c3cc(F)c4nc(-c5ccc(S(C)(=O)=O)cc5)n(C)c4c3)CC1)C2 (stereo not shown) [Example 284] | 118
CS(=O)(=O)c1ccc(-c2nc3ccc(C4CCN(C5CCN(C6CC6)CC5)CC4)c(F)c3[nH]2)cc1 | 238

Query: Recorded IC50 for `Cc1cc(C2CCN(C3CCN(CC(C)C)CC3)CC2)cc2[nH]c(-c3ccc4nccn4c3)nc12` , please?
Reply: 164

Query: Recorded IC50 for `CC(C)CN1CCC(N2CCC(c3cc(F)c4nc(-c5ccc(S(C)(=O)=O)cc5)n(C)c4c3)CC2)CC1` , please?
Reply: 58

Ref: patent US12492188B2
